Let's go through some IC50 measurements on Dual specificity protein phosphatase 3 (Homo sapiens, UniProt P51452) together.
Sequence (P51452 whole entry): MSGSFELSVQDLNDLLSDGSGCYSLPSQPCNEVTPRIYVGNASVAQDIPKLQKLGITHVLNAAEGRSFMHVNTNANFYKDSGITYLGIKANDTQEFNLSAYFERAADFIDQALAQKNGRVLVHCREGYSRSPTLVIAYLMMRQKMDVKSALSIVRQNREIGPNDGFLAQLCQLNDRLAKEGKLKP
Reply numerically in µM, unit not repeated.

Challenge: Please give the measured IC50 for this molecule: O=C(O)c1noc(-c2ccccc2)c1-c1cccc(-c2ccc(O)c(Cl)c2)c1
Response given: 18.7

Challenge: Now the same for Cc1cc(-c2cccc(-c3c(C(=O)O)noc3-c3ccccc3)c2)cc(C)c1O
Response given: 23.2

Challenge: Now the same for O=C(O)c1noc(-c2ccccc2)c1-c1cccc(-c2ccc(O)c(F)c2)c1
Response given: 40.2

Challenge: Now the same for O=C(O)c1noc(-c2ccccc2)c1-c1cccc(-c2cc(Cl)c(O)c([N+](=O)[O-])c2)c1
Response given: 13

Challenge: Now the same for O=C(O)c1noc(-c2ccccc2)c1-c1cccc(-c2ccc(O)cc2)c1
Response given: 54

Challenge: Now the same for O=C(O)c1noc(-c2ccccc2)c1-c1cccc(-c2cc(Cl)c(O)c(Cl)c2)c1
Response given: 10.5

Challenge: Now the same for O=C(O)c1noc(-c2ccccc2)c1-c1cccc(-c2cccc(O)c2)c1
Response given: 59

Challenge: Now the same for O=C(O)c1noc(-c2ccccc2)c1-c1cccc(-c2cc(Cl)cc(Cl)c2)c1
Response given: 12.3
